# Experimental system: 17-Beta HSD II Enzyme (Homo sapiens)
# Construct: made in house; host or cells: insect cells (baculovirus)
# Sequence (P37059 1-387): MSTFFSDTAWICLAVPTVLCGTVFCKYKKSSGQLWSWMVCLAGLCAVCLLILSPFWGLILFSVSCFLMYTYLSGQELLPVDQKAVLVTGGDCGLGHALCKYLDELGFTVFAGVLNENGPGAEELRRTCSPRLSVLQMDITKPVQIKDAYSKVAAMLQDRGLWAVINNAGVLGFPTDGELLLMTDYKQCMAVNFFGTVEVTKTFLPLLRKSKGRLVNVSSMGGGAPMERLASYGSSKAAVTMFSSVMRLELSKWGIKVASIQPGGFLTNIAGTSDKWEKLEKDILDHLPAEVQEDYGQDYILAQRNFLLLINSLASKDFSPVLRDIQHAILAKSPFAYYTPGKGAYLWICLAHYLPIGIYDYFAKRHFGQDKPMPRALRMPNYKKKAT
# Assay explanation: Primary assay: inhibition of 17-Beta HSD II enzyme (estradiol/NAD, PMS:MTS colorimetric readout at 490 nm)
# Assay type: biochemical
# Measurement conditions: Table 7; baculovirus-expressed recombinant HSD II, estradiol substrate
pIC50: −log10 of the molar value.
Property label: pIC50

[
  {
    "Compound": "CN1C(=O)C[C@H](c2ccc(O)cc2)[C@@H]1[C@H](O)c1ccc(-c2ccccc2)s1 (relative stereo)",
    "pIC50": "> 6.30"
  }
]

Qu. Hello, please tell me recorded pIC50 for this one: Cc1ccc(C)n1-c1cccc(C#C[C@@H](O)[C@H]2[C@@H](c3ccccc3)CC(=O)N2C)c1 (racemic)
Ans. > 6.30

Qu. Hello, please tell me recorded pIC50 for this one: `CN1C(=O)C[C@H](c2ccccc2F)[C@@H]1[C@H](O)c1ccc(-c2ccccn2)s1`
Ans. > 6.30

Qu. Hello, please tell me recorded pIC50 for this one: `CN1C(=O)C[C@H](c2ccccc2)[C@@H]1[C@H](O)c1ccc(-c2ccc[n+]([O-])c2)s1`
Ans. > 6.30

Qu. Hello, please tell me recorded pIC50 for this one: CN1C(=O)C[C@H](c2cccc(F)c2)[C@@H]1[C@H](O)c1ccc(-c2ccc(F)cc2)s1 (racemic)
Ans. > 6.30

Qu. Hello, please tell me recorded pIC50 for this one: `CN1C(=O)C[C@H](c2ccccc2)[C@@H]1[C@H](O)c1ccc(-c2ccccc2)s1`
Ans. > 6.30

Qu. Hello, please tell me recorded pIC50 for this one: CN1C(=O)CC(c2ccccc2)C1C(O)c1ccc(S(=O)(=O)N2CCOCC2)s1 (stereo not shown)
Ans. > 6.30
